Attribution: patent US20120135923A1

# Test target: hMC4-R (human) (UniProt P32245)
# Sequence (P32245 whole entry): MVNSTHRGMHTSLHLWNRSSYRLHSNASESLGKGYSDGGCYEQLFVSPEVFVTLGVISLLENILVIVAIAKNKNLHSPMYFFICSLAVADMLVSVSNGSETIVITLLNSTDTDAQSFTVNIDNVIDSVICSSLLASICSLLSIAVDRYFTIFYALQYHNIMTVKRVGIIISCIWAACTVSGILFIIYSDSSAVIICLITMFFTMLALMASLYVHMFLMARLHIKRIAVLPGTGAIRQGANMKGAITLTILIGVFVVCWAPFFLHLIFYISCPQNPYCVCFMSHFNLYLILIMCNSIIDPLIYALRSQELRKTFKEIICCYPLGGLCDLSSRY
# Protocol summary: cell-based or functional assay
Bridge positions count the residues as written; N and C are the ends. Square brackets hold non-standard residues; d marks the D form. Ends that are not written are not given here. Nle = CCCC[C@H](N)C(=O)O; Ava = NCCCCC(=O)O
Item-by-item account of cAMP EC50

Binder: RGCAHXRWC (residues 1-2 joined in a hydantoin ring (C(O)); D-Ala4; X6=D-2-Nal; Cys3-Cys9 disulfide; C-terminal amide) [Hydantoin(C(O)-(Arg-Gly))-c(Cys-D-Ala-His-D-2-Nal-Arg-Trp-Cys)-NH2]
cAMP EC50: 21.2 nM
--
Binder: Ac-[Nle]C[dL]H[dF]RWC-NH2 (disulfide 2-8; SMILES CCCC[C@H](NC(C)=O)C(=O)N[C@H]1CSSC[C@@H](C(N)=O)NC(=O)[C@H](Cc2c[nH]c3ccccc23)NC(=O)[C@H](CCCNC(=N)N)NC(=O)[C@@H](Cc2ccccc2)NC(=O)[C@H](Cc2c[nH]cn2)NC(=O)[C@@H](CC(C)C)NC1=O) [Ac-Nle-c(Cys-D-Leu-His-D-Phe-Arg-Trp-Cys)-NH2]
cAMP EC50: 0.0915 nM
--
Binder: [Nle]CH[dF]RW[Ava]C-NH2 (disulfide 2-8; N-terminus assumed; SMILES CCCC[C@H](N)C(=O)N[C@H]1CSSC[C@@H](C(N)=O)NC(=O)CCCCNC(=O)[C@H](Cc2c[nH]c3ccccc23)NC(=O)[C@H](CCCNC(=N)N)NC(=O)[C@@H](Cc2ccccc2)NC(=O)[C@H](Cc2c[nH]cn2)NC1=O) [Nle-c(Cys-His-D-Phe-Arg-Trp-Apn-Cys)-NH2]
cAMP EC50: 0.018 nM
